Test system: HCC-2998 colon
Test: NCI-60 one-dose screen, 48 h (100 = growth as untreated, 0 = no growth, -100 = all killed)
Conditions: 10 µM
Compounds without any hit were thinned out: in the full panel of roughly 83,000, 20% have a hit.
Mark no (0) for growth values under 20%, and yes (1) for everything at or above.

Look over these answered cases.
OCCNC(=S)Nc1ccc(-c2nc(N3C[C@H]4CC[C@@H](C3)O4)c3cccn3n2)cc1 = yes (1)
C=CC(=O)N(C)[C@H]1C[C@H]2OC(C)(C1OC)n1c3ccccc3c3c4c(c5c6ccccc6n2c5c31)C(=O)NC4 (stereo not given in full) = no (0)
CCn1c(-c2nonc2N)nc2c(C#CC(C)(C)O)ncc(OC[C@H]3CCCNC3)c21 = yes (1)
C/C(=C(/c1ccc(Cl)cc1)c1ccc(OCCN2CCCCCC2)cc1)c1ccccc1 = yes (1)

query: Threshold query (growth >= 20%) on "CCc1ccc(/C=C/c2ccc(O)c3ncccc23)[n+](C)c1"
result: yes (1)

* * *

System: MOLT-4 leukemia
Experiment: NCI-60 one-dose screen, 48 h (100 = growth as untreated, 0 = no growth, -100 = all killed)
Conditions: 10 µM unless noted
The panel holds about 83,000 compounds, 20% with a hit somewhere; the sample as a whole holds those more often.
observable: growth (%)
Please state the figure in %; there is no need to write the unit.

Some compounds with recorded growth:
CCN1CCN(c2nc(C)cc(N(CCCNc3ccnc4cc(Cl)ccc34)Cc3ccc4c(c3)OCO4)n2)CC1 = -14.1
CCc1ccc(C2=C(O)C(=O)C(c3ccc(CC)cc3)=C(O)C2=O)cc1 = -6.88
CC(=O)OCCC/C(=C\c1ccc2ccccc2c1)[N+](=O)[O-] = -26.1
CCOC(=O)C1=C(C)NC(=O)NC1c1cc(=O)oc2ccc(C)cc12 (centres undefined) = 99.1
CC#CC(=O)N1CCC[C@H]1c1nc(-c2ccc(C(=O)Nc3ccccn3)cc2)c2c(N)nccn12 = 89.4

query: Item under review: "CC12O[C@H](C[C@@H](OC(=O)CCC(=O)O)[C@H]1O)n1c3ccccc3c3c4c(c5c6ccccc6n2c5c31)C(=O)NC4=O" . Reported growth?
result: 5.17

* * *

Overview of reported growth across a group of compounds:
Test system: HOP-92 NSCLC
Experiment: NCI-60 one-dose screen, 48 h (100 = growth as untreated, 0 = no growth, -100 = all killed)
Conditions: 10 µM unless noted
The panel holds about 83,000 compounds, 20% with a hit somewhere; the sample as a whole holds those more often.
Note: unit % is implicit; provide only the numeric part.

Here are 3 compounds together with their reported answers.
NN1C(=O)CSC1=S = 102
COc1cccc(NC(=O)Nc2ccc(Nc3ncnc4sc5c(c34)CCN(C(=O)CCl)C5)cc2)c1 = 97.1
COc1cc(Nc2ncc(F)c(Nc3ccc4c(n3)NC(=O)C(C)(C)O4)n2)cc(OC)c1OC = 2.19

query: Return reported growth; argument: C=CC(=O)N(C)[C@H]1C[C@H]2OC(C)(C1OC)n1c3ccccc3c3c4c(c5c6ccccc6n2c5c31)C(=O)NC4 (some centres undefined)
result: -21.8

query: // growth lookup, key: "Cc1ccc(C(=O)Nc2ccc(CN3CCN(C)CC3)c(C(F)(F)F)c2)cc1C#Cc1cnc2cccnn12"
result: -74.1

query: Requested field: growth. Item: "Cc1nc(Nc2n[nH]c3c2CN(C(=O)N[C@H](CN(C)C)c2ccccc2)C3(C)C)c2sccc2n1"
result: -62.4

query: Suppose we examine the compound "CCN1CCN(CCCN(C[C@H]2Cc3ccccc3CN2)[C@H]2CCCc3cccnc32)CC1" ; what growth value has been reported?
result: 60.3

query: Entry "COCc1c(-c2ccc(NC(=O)Nc3cc(C(F)(F)F)ccc3F)c(F)c2)c2c(N)ncnn2c1CN1CCOCC1" : reported growth = ?
result: -32.8

query: What measured growth goes with "COc1cnc2c(c1)C(=O)c1c-2n(CCCN2CCC(O)CC2)c(=O)c2cc(Cl)ccc12" ?
result: 77.3

* * *

System: COLO 205 colon
Assay: NCI-60 one-dose screen, 48 h (100 = growth as untreated, 0 = no growth, -100 = all killed)
Details: 10 µM unless noted
The panel holds about 83,000 compounds, 20% with a hit somewhere; the sample as a whole holds those more often. Calls of active or inactive are those of the source. How the source made its calls: active means growth percent below 10; inactive means the rest.
observable: growth

query: Item "COc1c(OCCCN2CCOCC2)ccc2c3n(c(=NC(=O)c4cnc(N)nc4)nc12)CCN3" has what recorded growth?
result: -18.6% (active)

query: Fill in: growth of "COc1ccc(S(=O)(=O)N(C(C)=O)c2ccccc2/C=C/c2cc[n+]([O-])cc2)cc1" is ___
result: -36.6% (active)

query: May I ask what growth has been recorded for "O=C(NC1CCNCC1)c1[nH]ncc1NC(=O)c1c(Cl)cccc1Cl" ?
result: -35.9% (active)

query: Fill blank: measured growth of the molecule "Cn1nccc1Nc1nccc(-c2ccn([C@H](CO)c3ccc(Cl)c(F)c3)c(=O)c2)n1" is ____.
result: 14.4% (inactive)

query: What value of measured growth is listed for "CC(=O)NCC(=O)N1[C@@H]2CC[C@H]1c1ccc(Nc3ncc(C(F)(F)F)c(NC4CCC4)n3)cc12" ?
result: -22.6% [2.5 µM] (active)

query: Consider the molecule shown here: "COc1cc(C(=O)NNC(=O)c2ccc(NC(=O)CCl)cc2)cc(OC)c1OC" What is its recorded growth?
result: 106% (inactive)

query: Any idea what its growth is? The molecule is "CN1CCN(Cc2ccc(NC(=O)c3[nH]ncc3Nc3ncnc4sc5c(c34)CCCC5)cc2)CC1"
result: -93% (active)

query: Reported growth, molecule "CCCCN1C(=O)c2cccc3c(-c4ccc5c(c4)ncn5C4CCCCC4)ccc(c23)C1=O" : ____
result: 94% (inactive)

query: Request the reported growth associated with "CNC(=O)c1nn(C)c2c1C(C)(C)Cc1cnc(Nc3ccc(N4CCN(C)CC4)cc3)nc1-2"
result: -80.1% (active)

query: Given "COc1ccc(Cl)c(Nc2nc3ccccc3nc2NS(=O)(=O)c2cccc(NC(=O)C(C)(C)N)c2)c1" , state its recorded growth.
result: 21.8% (inactive)

* * *

Tested on: SK-MEL-28 melanoma
Test: NCI-60 one-dose screen, 48 h
Conditions: 10 µM unless noted
Compounds without any hit were thinned out: in the full panel of roughly 83,000, 20% have a hit. Activity calls are given as the source filed them. The calls were made as follows: active = growth percent below 10; inactive = the rest.
Answer with one of the outcomes TRUE = active, FALSE = inactive

As a guide, the following entries are already answered.
CCc1nc2cc(/C=C/C(=O)NO)ccc2c(=O)n1CCc1ccc(F)cc1 = FALSE
c1cc[n+](Cc2c3ccccc3cc3c2ccc2ccccc23)cc1 = TRUE
O=C(CNc1nc2ccccc2s1)Nc1ccc(-c2nc3ccccc3s2)cc1 = FALSE

query: In this assay, the call recorded for COc1ccc(C2CC(=O)c3c(O)c(OC)c(OC)c(OC)c3O2)c(O)c1 (stereo unspecified) was what?
result: FALSE

query: Tell me the assay call for "O=C(Nc1ccc(N=Nc2ccccc2)cc1)c1cccc2ccccc12" please.
result: FALSE

query: What did the test return for "CCN(CC)CCOc1ccc(/C(=C(\C)c2ccc(Cl)cc2)c2ccc(Cl)cc2)cc1" ?
result: FALSE

query: Outcome logged for "Cc1cccc(Cl)c1NC(=O)c1cnc(Nc2cc(N3CCOCC3)cc(N3CCOCC3)c2)s1" in this assay:
result: FALSE

query: # outcome recorded in this test, key = "COc1cc(Nc2ncc3c(n2)-c2ccc(Cl)cc2C(c2c(F)cccc2OC)=NC3)ccc1C(=O)O"
result: FALSE

query: What did the test return for "CSc1nc2ncncc2[nH]1" ?
result: FALSE

query: What did the test return for CC1(/C=N/NC(N)=S)NC(=O)NC1=O (stereo unspecified) ?
result: FALSE

query: Can you look up the reported call for "COc1cc2ncnc(Nc3cccc(Cl)c3F)c2cc1OC(=O)N1CCN(C)C[C@H]1C" for me?
result: FALSE

* * *

Test system: HS 578T breast
Experiment: NCI-60 one-dose screen, 48 h
Settings: 10 µM
Compounds without any hit were thinned out: in the full panel of roughly 83,000, 20% have a hit. Active and inactive are the calls of the source. How the source made its calls: active means growth percent below 10; inactive means the rest.
Valid outcomes are listed here; reply with one: active, inactive

Consider the following illustrative entries.
COc1ccc(-c2nocc2-c2cc(OC)c(OC)c(OC)c2)cc1 = inactive
COC(=O)[C@@H](NC(=O)[C@@H](OC)[C@@H]1Cc2cc3cc(OC4CC(OC5CC(O)C(O)C(C)O5)C(O)C(C)O4)c(C)c(O)c3c(O)c2C(=O)[C@H]1OC1CC(OC2CC(OC3CC(C)(O)C(O)C(C)O3)C(O)C(C)O2)C(O)C(C)O1)C(C)C (some centres not stated) = active

query: Can you look up the reported call for "C=CC[n+]1c(/C=C/C=C2\N(C)c3ccccc3C2(C)C)sc2ccc(OC)cc21" for me?
result: inactive

query: How was "OCCNC(=S)Nc1ccc(-c2nc(N3C[C@H]4CC[C@@H](C3)O4)c3cccn3n2)cc1" classified in this test?
result: active

query: What was the test verdict on "Cc1cc2c(-c3nc4ccccn4c3NC3CCCCC3)c(O)c(O)cc2c(O)c1-c1c(C)cc2c(-c3nc4ccccn4c3NC3CCCCC3)c(O)c(O)cc2c1O" ?
result: inactive

query: Any idea what this test logged for NC(=O)N1N=C(c2ccc(Cl)cc2)CC1c1cn(-c2ccccc2)nc1-c1ccc(Cl)cc1 (configuration not stated) ?
result: inactive

query: What is the recorded call for this molecule in the test? "CCc1nc2cc(/C=C/C(=O)NO)ccc2c(=O)n1CCc1ccc(OC)cc1"
result: inactive

Reference source for all entries: PubChem BioAssay (NCI)
